Molecular target: Mutant CD33-GFP M13 (R91E) on 293FT cells (UniProt P20138)
Sequence (P20138 18-364 R91E): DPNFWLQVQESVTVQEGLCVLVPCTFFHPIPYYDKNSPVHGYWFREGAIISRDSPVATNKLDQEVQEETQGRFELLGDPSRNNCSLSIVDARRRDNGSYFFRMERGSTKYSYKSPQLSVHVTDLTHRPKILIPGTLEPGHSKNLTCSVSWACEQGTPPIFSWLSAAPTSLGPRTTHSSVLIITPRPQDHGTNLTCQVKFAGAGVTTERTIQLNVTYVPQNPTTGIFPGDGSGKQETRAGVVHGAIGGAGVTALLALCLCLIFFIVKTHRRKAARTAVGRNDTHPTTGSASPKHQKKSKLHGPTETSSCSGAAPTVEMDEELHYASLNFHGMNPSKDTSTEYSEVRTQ
Assay: FACS, mutant CD33-GFP on 293FT cells
Kindly supply the reported FACS binding data values for the records listed here.
Give bare numbers.

For each of the binders below, note its FACS binding data.
1. sdCD33_5 (VHH, sdAb from a naive llama phage library; also called 413; sdAb413) VHH: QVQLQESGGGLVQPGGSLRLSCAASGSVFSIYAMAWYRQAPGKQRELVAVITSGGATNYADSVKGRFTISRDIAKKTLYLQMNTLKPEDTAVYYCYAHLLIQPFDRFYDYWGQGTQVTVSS
2. sdCD33_9 (VHH, sdAb from a naive llama phage library; also called 426; sdAb426) VHH: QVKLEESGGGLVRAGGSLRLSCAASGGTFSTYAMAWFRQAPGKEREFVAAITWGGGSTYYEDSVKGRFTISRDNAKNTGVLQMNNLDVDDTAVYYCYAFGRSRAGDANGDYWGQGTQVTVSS
3. sdCD33_6 (VHH, sdAb from a naive llama phage library; also called 416; sdAb416) VHH: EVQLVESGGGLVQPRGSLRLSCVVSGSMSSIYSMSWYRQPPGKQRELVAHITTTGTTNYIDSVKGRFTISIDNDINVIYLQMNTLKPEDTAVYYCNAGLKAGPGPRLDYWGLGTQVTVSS

## Output
1. 98.5
2. 99.3
3. 99.2
